# target-or-test-system: Replicase polyprotein 1ab (Severe acute respiratory syndrome coronavirus 2) (UniProt P0DTD1)
# test-name: Inhibition of recombinant SARS-CoV-2 3CLpro expressed in Escherichia coli NiCo21(DE3) assessed as residual activity at 500 uM using DABCYL-KTSAVLQSGFRKME-EDANS as substrate preincubated for 30 mins in presence of 1mM DTT followed by substrate addition and measured by FRET assay relative to control
endpoint: Activity (%)
Quick reminder: number only, in %, skip the unit.

Completed entries (count: 3):
- Nc1nc(C(=O)O)cs1: 84.9
- O=C(O)c1csc(Nc2cccc3ncccc23)n1: 41.2
- Nc1nc(-c2ccncc2)cs1: 77.8

Record COC(=O)c1cnc(Br)s1 , field Activity: 92.9

Record O=C(O)c1csc(-c2ccc(F)cc2)n1 , field Activity: 88.1

Record O=C(O)c1scnc1Br , field Activity: 80.1

Record Nc1nccs1 [AMINOTHIAZOLE] , field Activity: 82.5

Record Brc1cscn1 , field Activity: 80.1
